src = ChEMBL document CHEMBL1128504

biological target: Substance-P receptor (Homo sapiens, UniProt P25103); assay: Inhibition of [125I]-BH-Substance P binding to tachykinin receptor 1 in human IM-9 cells; format: cell-based
Sequence (P25103 whole entry): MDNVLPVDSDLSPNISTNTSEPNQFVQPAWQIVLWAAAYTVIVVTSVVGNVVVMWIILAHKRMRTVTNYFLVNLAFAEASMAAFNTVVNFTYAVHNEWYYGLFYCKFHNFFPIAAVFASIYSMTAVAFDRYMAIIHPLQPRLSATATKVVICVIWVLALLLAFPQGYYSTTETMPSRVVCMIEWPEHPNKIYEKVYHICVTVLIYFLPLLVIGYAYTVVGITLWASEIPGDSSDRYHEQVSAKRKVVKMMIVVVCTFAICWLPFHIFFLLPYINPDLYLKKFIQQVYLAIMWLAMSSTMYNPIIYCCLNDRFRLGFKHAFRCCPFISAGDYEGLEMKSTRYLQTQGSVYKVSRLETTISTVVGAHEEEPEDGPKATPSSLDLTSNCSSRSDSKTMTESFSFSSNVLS
yes if IC50 is below 0.2 µM. no if not; exact matches included in no.

Field: example entries. Status: answers known.
smiles-string | class
Cc1cc(C)cc(CN(C)C(=O)Nc2c(-c3ccccc3)c3cc(C)c(C)cc3c(=O)n2C)c1 | yes
COc1ccccc1CNC(=O)c1c(-c2ccccc2)c2ccccc2c(=O)n1C | no
CN(Cc1c(-c2ccccc2)c2ccccc2c(=O)n1C)C(=O)Cc1cc(C(F)(F)F)cc(C(F)(F)F)c1 | yes
CN(Cc1ccccc1Cl)C(=O)Nc1c(-c2ccc(F)cc2)c2ccccc2c(=O)n1C | no
CN(Cc1cc(C(F)(F)F)cc(C(F)(F)F)c1)C(=O)c1c(-c2ccc(F)cc2)c2cccnc2c(=O)n1C | yes

Task item: Lab note: IC50 threshold 0.2 µM. Does this compound come in strictly under it? COc1ccccc1CNC(=O)c1c(-c2ccccc2C)c2ccccc2c(=O)n1C
Reply: no

Task item: Consider the compound CN(Cc1ccccc1Cl)C(=O)c1c(-c2ccc(F)cc2)c2cccnc2c(=O)n1C . Is its IC50 strictly less than 0.2 µM?
Reply: yes

Task item: Strictly below 0.2 µM in IC50? CN(Cc1cc(C(F)(F)F)cc(C(F)(F)F)c1)C(=O)c1c(-c2ccccc2)c2cccnc2c(=O)n1C
Reply: yes

Task item: I wonder whether Cc1cc2c(-c3ccccc3)c(NC(=O)NCc3ccccc3)n(C)c(=O)c2cc1C has IC50 below 0.2 µM. Can you tell?
Reply: yes

Task item: A record lists Cc1ccc(-c2c(C(=O)N(C)Cc3cc(Cl)cc(Cl)c3)n(C)c(=O)c3ncccc23)cc1 . Is its IC50 below 0.2 µM?
Reply: yes

Task item: Identify whether the compound COc1ccccc1CNCc1c(-c2ccccc2)c2ccccc2c(=O)n1C records IC50 below 0.2 µM.
Reply: no

###

Kindly supply the reported IC50 values for the records listed here.
target: Substance-P receptor (Homo sapiens); experiment: Inhibition of [125I]-BH-Substance P binding to tachykinin receptor 1 in human IM-9 cells
Answers are plain numbers, in nM.

smiles-string | units-label | IC50
Cc1ccc(-c2c(C(=O)N(C)Cc3cc(C)cc(C)c3)n(C)c(=O)c3ncccc23)cc1 | nM | 4.4
Cc1cc(C)cc(CN(C)C(=O)c2c(-c3ccc(F)cc3)c3cccnc3c(=O)n2C)c1 | nM | 5.1
Cn1c(C(=O)NCc2cc(C(F)(F)F)cc(C(F)(F)F)c2)c(-c2ccc(F)cc2)c2cccnc2c1=O | nM | 1.1
CN(Cc1cc(C(F)(F)F)cc(C(F)(F)F)c1)Cc1c(-c2ccccc2)c2ccccc2c(=O)n1C | nM | 600
Cc1cc2c(-c3ccccc3)c(CNCc3cc(C(F)(F)F)cc(C(F)(F)F)c3)n(C)c(=O)c2cc1C | nM | 250

Answer for every listed entry: what is its IC50? The entries follow.
1. Cc1cccc(NC(=O)Nc2c(-c3ccccc3)c3cc(C)c(C)cc3c(=O)n2C)c1
2. CN(Cc1cc(C(F)(F)F)cc(C(F)(F)F)c1)C(=O)c1c(-c2ccc(F)cc2)c2ccccc2c(=O)n1C

Reply:
[840, 0.4]
